Taken from ChEMBL document CHEMBL3616396.

Measurement type: pIC50
Hey, just a heads up that pIC50 is the negative log base 10 of the concentration in molar.

**Q:** Identify the measured pIC50 of "COc1ccc(/C=C/C(=N\O)c2cc3ccccc3cc2O)c(OC)c1" for Tyrosinase (Agaricus bisporus).
**A:** 4.64

**Q:** Identify the measured pIC50 of "COc1cc(/C=C/C(=N\O)c2cc3ccccc3cc2O)cc(OC)c1" for Tyrosinase (Agaricus bisporus).
**A:** 4.28

**Q:** Identify the measured pIC50 of "COc1ccc(/C=C/C(=N\O)c2cc3ccccc3cc2O)cc1OC" for Tyrosinase (Agaricus bisporus).
**A:** 4.37

**Q:** Identify the measured pIC50 of "O/N=C(\C=C\c1ccncc1)c1cc2ccccc2cc1O" for Tyrosinase (Agaricus bisporus).
**A:** 4.71

====

- Experimental system: Tyrosinase (Agaricus bisporus, UniProt O42713)
- Sequence (O42713 whole entry): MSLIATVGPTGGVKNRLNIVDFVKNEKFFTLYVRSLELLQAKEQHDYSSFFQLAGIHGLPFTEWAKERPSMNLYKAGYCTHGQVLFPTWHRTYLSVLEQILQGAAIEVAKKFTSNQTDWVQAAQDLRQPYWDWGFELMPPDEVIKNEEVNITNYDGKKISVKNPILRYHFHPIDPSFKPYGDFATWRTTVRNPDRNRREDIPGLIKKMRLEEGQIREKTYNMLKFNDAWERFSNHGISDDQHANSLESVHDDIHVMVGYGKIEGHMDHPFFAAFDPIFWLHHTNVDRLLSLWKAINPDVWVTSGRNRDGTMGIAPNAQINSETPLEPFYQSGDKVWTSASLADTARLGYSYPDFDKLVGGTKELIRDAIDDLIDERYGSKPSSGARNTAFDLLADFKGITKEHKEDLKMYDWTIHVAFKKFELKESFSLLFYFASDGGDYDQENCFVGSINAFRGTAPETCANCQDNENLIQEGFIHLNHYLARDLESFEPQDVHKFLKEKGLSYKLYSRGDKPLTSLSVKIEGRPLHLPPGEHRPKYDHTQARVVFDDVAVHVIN
Measurement type: pKi
Hey, just a heads up that pKi is the negative log base 10 of the concentration in molar.

**Q:** Identify the measured pKi of "COc1ccc(/C=C/C(=N\O)c2cc3ccccc3cc2O)c(OC)c1" for Tyrosinase (Agaricus bisporus, UniProt O42713).
**A:** 4.97

**Q:** Identify the measured pKi of "O/N=C(\C=C\c1ccncc1)c1cc2ccccc2cc1O" for Tyrosinase (Agaricus bisporus, UniProt O42713).
**A:** 5.11

**Q:** Identify the measured pKi of "COc1cc(/C=C/C(=N\O)c2cc3ccccc3cc2O)cc(OC)c1" for Tyrosinase (Agaricus bisporus, UniProt O42713).
**A:** 4.54

**Q:** Identify the measured pKi of "COc1ccc(/C=C/C(=N\O)c2cc3ccccc3cc2O)cc1OC" for Tyrosinase (Agaricus bisporus, UniProt O42713).
**A:** 4.64

**Q:** Identify the measured pKi of "O/N=C(\C=C\c1ccccn1)c1cc2ccccc2cc1O" for Tyrosinase (Agaricus bisporus, UniProt O42713).
**A:** 4.96
